# measurementTarget: rat mGluR5 (Rattus norvegicus)
# measurementNotes: mGluR5 calcium mobilization assay (FDSS, Fluo-4) in HEK 293A cells stably expressing rat mGluR5
# statedConditions: HEK cells transfected with rat mGluR5; antagonism of glutamate EC80 response; ± = standard error of at least three experiments
pIC50: −log10 of the molar value.
recordedMetric: pIC50

1 = O=C(Nc1ccc(F)cn1)c1cc(Oc2cnc(F)c(F)c2)cn2ncnc12
2 = COc1cccc(NC(=O)c2cc(Oc3cncc(C)c3)cn3ncnc23)n1
3 = COc1cccc(NC(=O)c2cc(Oc3cnc(C)nc3)cn3ccnc23)n1
4 = Cc1ccc(NC(=O)c2cc(Oc3cncc(Cl)c3)cn3ncnc23)nc1
5 = [2H]c1nc(NC(=O)c2cc(Oc3cccnc3)cn3ncnc23)c([2H])c([2H])c1[2H]
Output the listed items in decreasing order of pIC50. Output spec: labels arranged per the requested ranking.
5, 1, 4, 2, 3

P = Cc1cccc(NC(=O)c2cc(Oc3cncc(F)c3)cn3ncnc23)n1
Q = O=C(Nc1nc(CF)cs1)c1cc(Oc2cncnc2)cn2ncnc12
R = Cc1ccc(NC(=O)c2cc(Oc3cncc(F)c3)cn3c(C)nnc23)nc1
Sort (3 molecules) by pIC50: min first. Quick reminder: the answer is the labels in the order asked.
R, Q, P
(R: 5.88, Q: 6.61, P: 7.24)

P = Cc1cncc(Oc2cc(C(=O)Nc3ccccn3)c3ncnn3c2)c1
Q = Cc1nc(NC(=O)c2cc(Oc3cncc(F)c3)cn3ccnc23)ccc1F
R = Cc1nc(NC(=O)c2cc(Oc3cncc(F)c3)cn3ncnc23)ccc1F
S = Cc1cccc(NC(=O)c2cc(Oc3cnc(C)nc3)cn3ccnc23)n1
# rank_down: sort by pIC50, max first // ordering of labels required in reply
P, R, Q, S

1 = COc1cccc(NC(=O)c2cc(Oc3cccnc3)cn3ncnc23)n1
2 = Cc1ccc(NC(=O)c2cc(Oc3cncnc3)cn3ncnc23)nc1
// which entry has the larger pIC50 value, 1 or 2 ? Use the label to indicate which entry you chose.
1
(1: 7.40, 2: 6.86)

---

# measurementTarget: rat mGluR5 (Rattus norvegicus, UniProt P31424)
# Sequence (P31424 21-1171 isoform P31424-2 limits assumed): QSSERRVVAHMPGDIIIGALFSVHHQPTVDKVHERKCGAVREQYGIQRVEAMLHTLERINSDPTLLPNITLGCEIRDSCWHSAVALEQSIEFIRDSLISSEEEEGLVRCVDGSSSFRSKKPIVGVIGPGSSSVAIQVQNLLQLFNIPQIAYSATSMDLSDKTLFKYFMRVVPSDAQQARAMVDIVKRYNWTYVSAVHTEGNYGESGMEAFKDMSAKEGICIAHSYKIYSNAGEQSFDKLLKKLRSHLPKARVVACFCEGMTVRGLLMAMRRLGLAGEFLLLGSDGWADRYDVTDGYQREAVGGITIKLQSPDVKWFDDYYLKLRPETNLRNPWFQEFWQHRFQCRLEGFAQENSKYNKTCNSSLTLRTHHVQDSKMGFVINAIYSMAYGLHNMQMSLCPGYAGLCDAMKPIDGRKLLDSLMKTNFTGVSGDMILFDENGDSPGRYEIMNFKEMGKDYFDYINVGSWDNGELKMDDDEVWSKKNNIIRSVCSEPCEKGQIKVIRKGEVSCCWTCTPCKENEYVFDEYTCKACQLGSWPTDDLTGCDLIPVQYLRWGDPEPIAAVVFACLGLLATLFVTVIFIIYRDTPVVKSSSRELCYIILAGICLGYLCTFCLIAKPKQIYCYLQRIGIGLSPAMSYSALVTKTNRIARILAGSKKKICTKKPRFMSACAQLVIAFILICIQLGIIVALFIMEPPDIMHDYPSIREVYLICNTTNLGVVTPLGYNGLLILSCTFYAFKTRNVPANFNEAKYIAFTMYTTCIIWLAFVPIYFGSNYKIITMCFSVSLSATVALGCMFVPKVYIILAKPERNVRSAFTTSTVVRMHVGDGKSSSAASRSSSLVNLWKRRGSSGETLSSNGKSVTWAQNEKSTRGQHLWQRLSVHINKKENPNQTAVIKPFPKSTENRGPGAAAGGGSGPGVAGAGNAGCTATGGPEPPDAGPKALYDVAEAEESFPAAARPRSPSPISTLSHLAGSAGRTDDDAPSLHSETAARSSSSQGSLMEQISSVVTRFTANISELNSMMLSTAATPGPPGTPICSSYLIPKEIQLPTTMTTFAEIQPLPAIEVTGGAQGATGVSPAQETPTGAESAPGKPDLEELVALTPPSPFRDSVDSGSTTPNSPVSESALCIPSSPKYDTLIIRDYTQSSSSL
# measurementNotes: mGluR5 calcium mobilization assay (FDSS, Fluo-4) in HEK 293A cells stably expressing rat mGluR5
# statedConditions: HEK cells transfected with rat mGluR5; antagonism of glutamate EC80 response; ± = standard error of at least three experiments
# Procedure: Human embryonic kidney (HEK) cells transfected with rat or human mGluR5 were plated in clear bottom assay plates for assay in a Functional Drug Screening System (FDSS). […] Test compound was applied to cells 3 seconds after baseline readings were taken. […] The mGluR5 activity was determined using the calcium mobilization assays in human embryonic kidney cells as described herein below, wherein the human embryonic kidney cells were transfected with rat mGluR5. […]
pIC50: −log10 of the molar value.
recordedMetric: pIC50

P = O=C(Nc1ccc(F)cn1)c1cc(Oc2cc(F)cnc2F)cn2ncnc12
Q = [2H]c1nc(NC(=O)c2cc(Oc3cncc(F)c3)cn3ccnc23)c([2H])c([2H])c1[2H]
Out of P and Q , name the one with the higher pIC50. # respond with the chosen item's label
Q
(Q: 7.82, P: 6.86)

P = Cc1nnc2c(C(=O)Nc3ccccn3)cc(Oc3cncc(F)c3)cn12
Q = [2H]c1nc(NC(=O)c2cc(Oc3cncc(F)c3)cn3cnnc23)c([2H])c([2H])c1[2H]
Task for the reader: decide whether P or Q has the larger pIC50. // return label of chosen record
Q

---

# measurementTarget: rat mGluR5 (Rattus norvegicus, UniProt P31424)
# Construct: expressed in transfected cells
# measurementNotes: mGluR5 calcium mobilization assay (FDSS, Fluo-4) in HEK 293A cells stably expressing rat mGluR5
# Format: cell-based
# statedConditions: HEK cells transfected with rat mGluR5; antagonism of glutamate EC80 response; ± = standard error of at least three experiments
recordedMetric: IC50 (nM)

I = Cc1nc(NC(=O)c2cc(Oc3cncnc3)cn3ncnc23)sc1F
II = COc1ccc(NC(=O)c2cc(Oc3cncc(F)c3)cn3ncnc23)nc1
Rank I against II by their IC50 values and give the higher one. # respond with the chosen item's label
I

A = O=C(Nc1ccc(F)cn1)c1cc(Oc2cncc(OC(F)F)c2)cn2ncnc12
B = COc1cncc(Oc2cc(C(=O)Nc3cccc(C)n3)c3nccn3c2)c1
Would you mind telling me which has the lower recorded IC50 between A and B ? Your choice should be expressed through its label.
B

---

# measurementTarget: rat mGluR5 (Rattus norvegicus)
# measurementNotes: mGluR5 calcium mobilization assay (FDSS, Fluo-4) in HEK 293A cells stably expressing rat mGluR5
# statedConditions: HEK cells transfected with rat mGluR5; antagonism of glutamate EC80 response; ± = standard error of at least three experiments
pIC50: −log10 of the molar value.
recordedMetric: pIC50

In [3]: df
Out[3]:
                                 smilestext  valuereported
0  Cc1ccc(NC(=O)c2cc(Oc3cncc(Cl)c3)cn3cnnc23)nc1           5.98

A = O=C(Nc1ccccn1)c1cc(Oc2cncc(F)c2)cn2ccnc12
B = COc1cncc(Oc2cc(C(=O)Nc3ccccn3)c3nncn3c2)c1
Between A and B , which one has the lower reported pIC50 value? Output the label that corresponds to your choice.
B

---

# measurementTarget: rat mGluR5 (Rattus norvegicus, UniProt P31424)
# measurementNotes: mGluR5 calcium mobilization assay (FDSS, Fluo-4) in HEK 293A cells stably expressing rat mGluR5
# statedConditions: HEK cells transfected with rat mGluR5; antagonism of glutamate EC80 response; ± = standard error of at least three experiments
pIC50: −log10 of the molar value.
recordedMetric: pIC50

                                 smilestext  valuereported
0  COc1cccc(NC(=O)c2cc(Oc3cncc(Cl)c3)cn3ncnc23)n1           6.63

a = Cc1ccc(NC(=O)c2cc(Oc3cncc(F)c3)cn3nc(C)nc23)nc1
b = O=C(Nc1cccc(F)n1)c1cc(Oc2cncnc2)cn2cnnc12
Hi, I'm comparing a with b and wondering which one has the bigger number for pIC50. Any idea? Answer by stating the label of the chosen item.
b
(b: 6.63, a: 6.33)

---

# measurementTarget: rat mGluR5 (Rattus norvegicus, UniProt P31424)
# measurementNotes: mGluR5 calcium mobilization assay (FDSS, Fluo-4) in HEK 293A cells stably expressing rat mGluR5
# statedConditions: HEK cells transfected with rat mGluR5; antagonism of glutamate EC80 response; ± = standard error of at least three experiments
pIC50: −log10 of the molar value.
recordedMetric: pIC50

>>> print(df.to_string())
                                 smilestext  valuereported
0  N#Cc1cncc(Oc2cc(C(=O)Nc3ccccn3)c3ncnn3c2)c1           6.98

I = COc1cncc(Oc2cc(C(=O)Nc3ccccn3)c3nccn3c2)c1
II = O=C(Nc1ccc(F)cn1)c1cc(Oc2cncnc2)cn2cnnc12
Hi there! Just curious which has the higher pIC50 between I and II . Write down the label of the entry you select.
I
(I: 7.40, II: 6.79)

---

# measurementTarget: rat mGluR5 (Rattus norvegicus, UniProt P31424)
# measurementNotes: mGluR5 calcium mobilization assay (FDSS, Fluo-4) in HEK 293A cells stably expressing rat mGluR5
# statedConditions: HEK cells transfected with rat mGluR5; antagonism of glutamate EC80 response; ± = standard error of at least three experiments
recordedMetric: IC50 (µM)

Solved entries (count: 3):
                                 smilestext  valuereported
0  COc1ccc(NC(=O)c2cc(Oc3cncc(OC)c3)cn3ccnc23)nc1          0.085
1  Cc1csc(NC(=O)c2cc(Oc3cncc(F)c3)cn3nc(C)nc23)n1          0.135
2  COc1cncc(Oc2cc(C(=O)Nc3nc(C)cs3)c3nccn3c2)c1          0.066

1 = O=C(Nc1ccccn1)c1cc(Oc2cncnc2)cn2ncnc12
2 = [2H]c1nc(NC(=O)c2cc(Oc3cncc(Cl)c3)cn3ncnc23)c([2H])c([2H])c1[2H]
# returns the entry with the larger IC50; inputs 1 and 2 API: response body contains the label of the selected item.
1
(1: 0.219 µM, 2: 0.043 µM)

---

# measurementTarget: rat mGluR5 (Rattus norvegicus)
# measurementNotes: mGluR5 calcium mobilization assay (FDSS, Fluo-4) in HEK 293A cells stably expressing rat mGluR5
# statedConditions: HEK cells transfected with rat mGluR5; antagonism of glutamate EC80 response; ± = standard error of at least three experiments
pIC50: −log10 of the molar value.
recordedMetric: pIC50

Examples with answers:
In [3]: df
Out[3]:
                                 smilestext               measurementtarget  recordedmetric  valuereported
0  Cc1csc(NC(=O)c2cc(Oc3cncc(Cl)c3)cn3cnnc23)n1  rat mGluR5 (Rattus norvegicus)           pIC50           6.18
1  COc1cncc(Oc2cc(C(=O)Nc3cccc(OC)n3)c3nccn3c2)c1  rat mGluR5 (Rattus norvegicus)           pIC50           6.57
2  O=C(Nc1ccccn1)c1cc(Oc2cncc(F)c2)cn2cnnc12  rat mGluR5 (Rattus norvegicus)           pIC50           7.48

1 = COc1cccc(NC(=O)c2cc(Oc3cncc(F)c3)cn3cnnc23)n1
2 = CCc1cccc(NC(=O)c2cc(Oc3cncnc3)cn3ncnc23)n1
3 = O=C(Nc1ccc(F)cn1)c1cc(Oc2cncc(O)c2)cn2ncnc12
Please rank these compounds by pIC50 in descending order. Record the ranking as a list of labels in the requested order.
3, 1, 2
(3: 7.40, 1: 6.84, 2: 6.51)

These data points were gathered from patent US9844542B2.
